Hello, the source for this data is patent US20260226026A1, in case you need it.

AUC(0-t) for assorted compounds
- experimental protocol: in vivo
- Parameters: species or system SD rats
- test conditions: male, SD, rat, po, 3 mg/kg
quantity measured: AUC(0-t) (ng·h/mL)

compound="CCOc1cncc(-c2ccc(NC(=O)C3(c4ccnc(NS(=O)(=O)C5CC5)n4)CCC(=CCO)CC3)nc2)n1 (stereo not shown)" quantity_measured=AUC(0-t) reading=417
compound="CCOc1cncc(-c2ccc(NC(=O)C3(c4ccnc(NS(=O)(=O)C5CC5)n4)CCC(=CF)CC3)nc2)n1 (stereo not shown)" quantity_measured=AUC(0-t) reading=87200
compound="CCOc1cncc(-c2ccc(NC(=O)C3(c4ccnc(NS(=O)(=O)C5CC5)n4)CCC(=CCC4COC4)CC3)nc2)n1 (stereo not shown)" quantity_measured=AUC(0-t) reading=37600
compound="CCOc1cncc(-c2ccc(NC(=O)C3(c4cncc(NS(=O)(=O)C5CC5)n4)CCC(=C(F)F)CC3)nc2)n1 (stereo not shown)" quantity_measured=AUC(0-t) reading=40800

====

- experimental protocol: in vivo
- Set-up: species or system SD rats
- test conditions: male, SD, rat, po, 1.5 mg/kg
quantity measured: half-life

compound="CCOc1cncc(-c2ccc(NC(=O)C3(c4ccnc(NS(=O)(=O)C5CC5)n4)CCC(=C(F)C4CCOCC4)CC3)nc2)n1 (stereo not shown) [Compound 52]" quantity_measured=half-life reading="2.01 h"

====

- Tested on: Jurkat cells
- experimental protocol: Inhibition of Jurkat cell proliferation (CellTiter-Glo, 72 hours)
- Assay type: cell-based
- test conditions: Homo sapiens; Jurkat cells, 72 hours, CellTiter-Glo; read-out: Jurkat (IC50)
pIC50: −log10 of the molar value.
quantity measured: pIC50

compound="CCOc1cncc(-c2ccc(NC(=O)C3(c4ccnc(NS(=O)(=O)C5CC5)n4)CCC(=C(F)CN4CCOCC4)CC3)nc2)n1 (stereo not shown)" assayed_system="Jurkat cells" reading="> 7.30"
compound="CCOc1cncc(-c2ccc(NC(=O)C3(c4ccnc(NS(=O)(=O)C5CC5)n4)CCC(=CCNS(C)(=O)=O)CC3)nc2)n1 (stereo not shown)" assayed_system="Jurkat cells" reading="> 7.30"
compound="CCOc1cncc(-c2ccc(NC(=O)C3(c4ccnc(NS(=O)(=O)C5CC5)n4)CCC(=CCO)CC3)nc2)n1 (stereo not shown)" assayed_system="Jurkat cells" reading="> 7.82"
compound="CCOc1cncc(-c2ccc(NC(=O)C3(c4ccnc(NS(=O)(=O)C5CC5)n4)CCC(=C(C)CO)CC3)nc2)n1 (stereo not shown)" assayed_system="Jurkat cells" reading="> 7.82"
compound="CCOc1cncc(-c2ccc(NC(=O)C3(c4ccnc(NS(=O)(=O)C5CC5)n4)CCC(=CCN4CC(OC)C4)CC3)nc2)n1 (stereo not shown)" assayed_system="Jurkat cells" reading="> 7.82"
compound="CCOc1cncc(-c2ccc(NC(=O)C3(c4ccnc(NS(=O)(=O)C5CC5)n4)CCC(=Cc4ccccn4)CC3)nc2)n1 (stereo not shown)" assayed_system="Jurkat cells" reading="> 7.52"
compound="CCOc1cncc(-c2ccc(NC(=O)C3(c4ccnc(NS(=O)(=O)C5CC5)n4)CCC(=C(C)F)CC3)nc2)n1 (stereo not shown)" assayed_system="Jurkat cells" reading="> 7.52"

====

- experimental protocol: in vivo
- Parameters: species or system SD rats
- test conditions: male, SD, rat, po, 2 mg/kg
quantity measured: log10 AUC(0-t) (log10 of the value in ng·h/mL)

compound="CCOc1cncc(-c2ccc(NC(=O)C3(c4ccnc(NS(=O)(=O)C5CC5)n4)CCC(=C(C)CO)CC3)nc2)n1 (stereo not drawn)" quantity_measured="log10 AUC(0-t)" reading=3.15
compound="CCOc1cncc(-c2ccc(NC(=O)C3(c4ccnc(NS(=O)(=O)C5CC5)n4)CCC(=C(F)CO)CC3)nc2)n1 (stereo not drawn)" quantity_measured="log10 AUC(0-t)" reading=3.17
compound="CCOc1cncc(-c2ccc(NC(=O)C3(c4ccnc(NS(=O)(=O)C5CC5)n4)CCC(=C(C)C4COC4)CC3)nc2)n1 (stereo not drawn)" quantity_measured="log10 AUC(0-t)" reading=1.80
compound="CCOc1cncc(-c2ccc(NC(=O)C3(c4ccnc(NS(=O)(=O)C5CC5)n4)CCC(=C(F)CC4COC4)CC3)nc2)n1 (stereo not drawn)" quantity_measured="log10 AUC(0-t)" reading=4.05
compound="CCOc1cncc(-c2ccc(NC(=O)C3(c4ccnc(NS(=O)(=O)C5CC5)n4)CCC(=CCCO)CC3)nc2)n1 (stereo not drawn)" quantity_measured="log10 AUC(0-t)" reading=1.52
compound="CCOc1cncc(-c2ccc(NC(=O)C3(c4ccnc(NS(=O)(=O)C5CC5)n4)CCC(=C(F)C4COC4)CC3)nc2)n1 (stereo not drawn)" quantity_measured="log10 AUC(0-t)" reading=3.33

====

- assayed system: hCTPS1 enzyme (Homo sapiens, UniProt P17812)
- Sequence (P17812 1-591): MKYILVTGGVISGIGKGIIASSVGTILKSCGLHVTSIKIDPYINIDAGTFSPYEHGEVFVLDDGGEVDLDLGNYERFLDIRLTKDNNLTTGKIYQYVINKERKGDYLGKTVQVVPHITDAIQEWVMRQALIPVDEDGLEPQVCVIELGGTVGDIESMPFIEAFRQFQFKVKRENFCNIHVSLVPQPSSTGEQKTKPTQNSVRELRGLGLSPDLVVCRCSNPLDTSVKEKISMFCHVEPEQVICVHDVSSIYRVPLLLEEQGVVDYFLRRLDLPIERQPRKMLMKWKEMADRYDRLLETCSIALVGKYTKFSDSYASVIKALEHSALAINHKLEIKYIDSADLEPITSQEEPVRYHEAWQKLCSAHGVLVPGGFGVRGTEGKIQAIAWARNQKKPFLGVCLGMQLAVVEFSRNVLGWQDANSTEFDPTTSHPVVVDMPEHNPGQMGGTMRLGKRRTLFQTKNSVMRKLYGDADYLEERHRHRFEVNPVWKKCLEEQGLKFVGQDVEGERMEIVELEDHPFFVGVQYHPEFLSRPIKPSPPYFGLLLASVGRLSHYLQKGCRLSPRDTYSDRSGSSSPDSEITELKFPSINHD
pIC50: −log10 of the molar value.
quantity measured: pIC50

molecule="CCOc1cncc(-c2ccc(NC(=O)C3(c4ccnc(NS(=O)(=O)C5CC5)n4)CCC(=CCC4COC4)CC3)nc2)n1 (stereo not shown)" assayed_system="hCTPS1 enzyme (Homo sapiens, UniProt P17812)" reading="> 7.60"
molecule="CCOc1cncc(-c2ccc(NC(=O)C3(c4ccnc(NS(=O)(=O)C5CC5)n4)CCC(=CC4CCOCC4)CC3)nc2)n1 (stereo not shown)" assayed_system="hCTPS1 enzyme (Homo sapiens, UniProt P17812)" reading="> 7.60"
molecule="CCOc1cncc(-c2ccc(NC(=O)C3(c4ccnc(NS(=O)(=O)C5CC5)n4)CCC(=CCNS(C)(=O)=O)CC3)nc2)n1 (stereo not shown)" assayed_system="hCTPS1 enzyme (Homo sapiens, UniProt P17812)" reading="> 7.30"
molecule="CCOc1cncc(-c2ccc(NC(=O)C3(c4ccnc(NS(=O)(=O)C5CC5)n4)CCC(=C(F)F)CC3)nc2)n1 (stereo not shown)" assayed_system="hCTPS1 enzyme (Homo sapiens, UniProt P17812)" reading="> 7.60"
molecule="CCOc1cncc(-c2ccc(NC(=O)C3(c4ccnc(NS(=O)(=O)C5CC5)n4)CCC(=CCN4CCOCC4)CC3)nc2)n1 (stereo not shown)" assayed_system="hCTPS1 enzyme (Homo sapiens, UniProt P17812)" reading="> 7.60"
molecule="CCOc1cncc(-c2ccc(NC(=O)C3(c4ccnc(NS(=O)(=O)C5CC5)n4)CCN(C4CC(=C(F)F)C4)CC3)nc2)n1 (stereo not shown)" assayed_system="hCTPS1 enzyme (Homo sapiens, UniProt P17812)" reading="> 7.00"
molecule="CCOc1cncc(-c2ccc(NC(=O)C3(c4ccnc(NS(=O)(=O)C5CC5)n4)CCC(=CC4COC4)CC3)nc2)n1 (stereo not shown)" assayed_system="hCTPS1 enzyme (Homo sapiens, UniProt P17812)" reading="> 7.60"
molecule="CCOc1cncc(-c2ccc(NC(=O)C3(c4ccnc(NS(=O)(=O)C5CC5)n4)CCC(=C(C)F)CC3)nc2)n1 (stereo not shown)" assayed_system="hCTPS1 enzyme (Homo sapiens, UniProt P17812)" reading="> 7.60"
molecule="CCOc1cncc(-c2ccc(NC(=O)C3(c4ccnc(NS(=O)(=O)C5CC5)n4)CCC(=CCOC)CC3)nc2)n1 (single isomer, unassigned)" assayed_system="hCTPS1 enzyme (Homo sapiens, UniProt P17812)" reading="> 7.30"
molecule="CCOc1cncc(-c2ccc(NC(=O)C3(c4ccnc(NS(=O)(=O)C5CC5)n4)CCC(=CCN4CC(O)C4)CC3)nc2)n1 (stereo not shown)" assayed_system="hCTPS1 enzyme (Homo sapiens, UniProt P17812)" reading="> 7.30"
molecule="CCOc1cncc(-c2ccc(NC(=O)C3(c4ccnc(NS(=O)(=O)C5CC5)n4)CCC(=CC4(C)COC4)CC3)nc2)n1 (stereo not shown)" assayed_system="hCTPS1 enzyme (Homo sapiens, UniProt P17812)" reading="> 7.60"
molecule="CCOc1cncc(-c2ccc(NC(=O)C3(c4ccnc(NS(=O)(=O)C5CC5)n4)CCC(=CF)CC3)nc2)n1 (stereo not shown)" assayed_system="hCTPS1 enzyme (Homo sapiens, UniProt P17812)" reading="> 7.60"
molecule="CCOc1cncc(-c2ccc(NC(=O)C3(c4ccnc(NS(=O)(=O)C5CC5)n4)CCC(=CCN4CC(OC)C4)CC3)nc2)n1 (stereo not shown)" assayed_system="hCTPS1 enzyme (Homo sapiens, UniProt P17812)" reading="> 7.30"
